Test: in vitro
experimental-readout: viability at 24 h, 0.1 µM (%)
Give the quantity in %, number only.

Give its viability at 24 h, 0.1 µM value. Item: `O=C(NCCCCCCNc1c2c(nc3ccccc13)CCC2)c1ccc(Cl)nc1`
100

* * *

Test: LogP assay (HPLC, calibration curve)
Type: physicochemical
Settings: reversed-phase HPLC, Waters Xbridge C18 column; Experimental
experimental-readout: chromatographic logP
Could you keep your reply to the number by itself?

Need chromatographic logP, item `O=C(NCCCCCCNc1c2c(nc3ccccc13)CCC2)c1ccc(Cl)nc1`
3.99

* * *

Assay: pKa assay (UV spectra in buffers pH 5.6 to 12.4)
Format: physicochemical
Conditions: phosphate buffers in methanol:water (1:1), pH 5.6 to 12.4, Experimental; read-out: pKa1
experimental-readout: pKa
Respond numerically, and do not add a unit to the figure.

If you can, please state the reported pKa value of `O=C(NCCCCCCNc1c2c(nc3ccccc13)CCC2)c1ccc(Cl)nc1` .
8.53

* * *

Assay: pKa assay (UV spectra in buffers pH 5.6 to 12.4)
Assay type: physicochemical
Settings: phosphate buffers in methanol:water (1:1), pH 5.6 to 12.4, Experimental; read-out: pKa2
experimental-readout: pKa
Returns: the value as a bare number; no unit string appended.

Quick one: pKa of `O=C(NCCCCCCNc1c2c(nc3ccccc13)CCC2)c1ccc(Cl)nc1` ?
11.3

* * *

Target: Aβ (1–42) (Homo sapiens, UniProt P05067)
Sequence (P05067 672-713 limits assumed): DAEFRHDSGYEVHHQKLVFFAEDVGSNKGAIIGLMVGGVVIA
Experiment: Self-induced Aβ(1–42) aggregation, Thioflavin T assay
Format: biochemical
experimental-readout: IC50

// lookup IC50 | system=Aβ (1–42) (Homo sapiens, UniProt P05067) | key= `O=C(NCCCCCCNc1c2c(nc3ccccc13)CCC2)c1ccc(Cl)nc1`
15 µM

* * *

Assay: in vitro
experimental-readout: viability at 24 h, 10 µM (%)
Record the value in %, omitting the unit from your answer.

What value of viability at 24 h, 10 µM has been recorded for this entry: `O=C(NCCCCCCNc1c2c(nc3ccccc13)CCC2)c1ccc(Cl)nc1`
93
